Measured gcPBM binding intensity (ln) of individual entries
# Tested on: PF3D7_0420300 AP2 domain 1 (GST-tagged)
# assayDetails: gcPBM binding intensity (ln(normalized median fluorescence intensity)); higher = stronger DNA binding
Over roughly 25,000 sequences, “ln(normalized median fluorescence intensity)” has its median near 9.3; the highest 2% begin near 10. For the sample, the highest values were picked, then their nearest neighbours and some sequences at random.

sequenceCode | targetOrSystem | gcPBM binding intensity (ln)
TTTTTTTTTTTTAATTAACACACATAAATATATATA [CACACA_site9077] | PF3D7_0420300 AP2 domain 1 (GST-tagged) | 9.11
TTAACAAATAGACACACACACACACGCAAAAAAAAA [CACACA_site6387] | PF3D7_0420300 AP2 domain 1 (GST-tagged) | 10.2
TTATGTTCATTATATGCACACATATATATAAATGTA [CACACA_site8947] | PF3D7_0420300 AP2 domain 1 (GST-tagged) | 9.24
ATTCATTCATATGTTACACACACACCGACACATAAA [CACACA_site5749] | PF3D7_0420300 AP2 domain 1 (GST-tagged) | 10
ACTATTAACAGTGTAGTGCAAAAAGGTTAATTATTA | PF3D7_0420300 AP2 domain 1 (GST-tagged) | 9.42
TTTTCCCTTACAGAAAAAAAAAAATTCCTAACCCCG [CACACA_negctrl_site650] | PF3D7_0420300 AP2 domain 1 (GST-tagged) | 9.03
TATATATATATTGAAGTGCAAAATACTGTACGTAAT | PF3D7_0420300 AP2 domain 1 (GST-tagged) | 9.4
ATTCATTCATATGTTACACACACACGCCCACATAAA [CACACA_site7513] | PF3D7_0420300 AP2 domain 1 (GST-tagged) | 10.3
AAAATTCATAAATACACACACGCACATATATATATA [CACACA_site4227] | PF3D7_0420300 AP2 domain 1 (GST-tagged) | 9.88
ATTAGTTTTATATATAGTACATATAATTTTGAAGGT [XGTACX_site7445] | PF3D7_0420300 AP2 domain 1 (GST-tagged) | 9.2

###

# System: PF3D7_0420300 AP2 domain 1 (GST-tagged)
# assayDetails: gcPBM binding intensity (ln(normalized median fluorescence intensity)); higher = stronger DNA binding
The full ranking holds about 25,000 sequences; the median of “ln(normalized median fluorescence intensity)” is about 9.3, and the highest 2% start at about 10. The sample as a whole holds a higher share of the highest values than the screen did.

sequenceCode | gcPBM binding intensity (ln)
AAAATTAAAAATAACACACACATATATATATTTATA [CACACA_site2776] | 9.84
ATATCTTATGTTATCACACACACACGCACAAAACAG [CACACA_site6800] | 10.2
TATATATATAATATTGCACACAAAATTAAAAGTAAA [CACACA_site7889] | 9.47
ATAATACAATTTATAACACACACACTATAATACATA [CACACA_site8338] | 9.97
ACAAAATATACAAAATGTACAAAATTTACAAAATAT [XGTACX_site6466] | 9.43
CACAGATAAATTAACACACACACACGGATATTTATA [CACACA_site7788] | 10.2
ATCTTATATGATCACACACACACGCACAAAACAGAA [CACACA_site4913] | 10.1
TATATATGTATATATGGTACAGAATATTCTACATTA [XGTACX_site5077] | 9.23
ATCTTATATTATCACACACACACGCACAAAACAGAA [CACACA_site1463] | 10.1
